All figures here come from the supplement of paper PMC11208160.

Exercise: state measured recombinant barcode read abundance (log10) for each of the sequences provided.
# protocol summary: recombinant barcode read abundance after kanamycin selection (control-corrected) (log10(CPM+1)); higher = more efficient recombination; sequences stand for … in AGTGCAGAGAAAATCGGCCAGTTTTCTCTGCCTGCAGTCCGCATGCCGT…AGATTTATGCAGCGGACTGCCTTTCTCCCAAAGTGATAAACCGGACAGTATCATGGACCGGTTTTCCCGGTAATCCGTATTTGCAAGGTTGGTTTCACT; site = the 11-nt target;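 also: IS621 recombinase and bridge RNA in Escherichia coli cells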

Q: Data request, read-out recombinant barcode read abundance (log10), for CATGTGCCTTGGGTTCTAACCTGTTGCCT (site TATGCGCCTAG)
A: 0.329

Q: Then what about the sequence CTATTTACTTGGGTTCTAACCTGTTGCCT (site CTAATTACTAG) ?
A: 0.0674

Q: What do you get for TACCTAGCTTGGGTTCTAACCTGTTGCGT (site TACCTATCTAC) ?
A: 0.433

Q: Now try CTAAGGTCTTGGGTTCTAACCTGTTGCAT (site CTAAGGTCTAA) .
A: 0.688

Q: Also GACAGGACTTGGGTTCTAACCTGTTGCCT (site AACACGACTAG) , if possible.
A: 0.196

Q: Next entry: CTCTAACCTTGGGTTCTAACCTGTTGCGT (site CTCTAACCTAC)
A: 1.45

Q: Try this sequence next: AAGACTCCTTGGGTTCTAACCTGTTGCTT (site AAGACTCCTAA)
A: 1.05

Q: Same question, AGAAGTCCTTGGGTTCTAACCTGTTGCGG (site AGAAGTCCTCG) this time
A: 0.101

Q: # repeat for AACATAACTTGGGTTCTAACCTGTTGCGT (site TGTTGTCCTCA)
A: 0.0331

Q: Would you mind doing TGGAACCCTTGGGTTCTAACCTGTTGCGG (site TGGCACCCTCC) as well?
A: 0.0841
